Molecular target: T1, RAPGEF6, Q8TEU7
T1 sequence (Q8TEU7 525-625, limits assumed, looked up): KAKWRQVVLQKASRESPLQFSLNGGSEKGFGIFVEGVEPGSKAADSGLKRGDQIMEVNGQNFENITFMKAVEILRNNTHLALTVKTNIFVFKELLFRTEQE
Assay: holdup assay
Design: key: below the threshold = too weak to quantify, mostly under pKd 3.1 to 4
Settings: plain residues with an end cap or a label only (N-terminal biotin on a linker: ahx)
MEASUREMENT_KIND: pKd

For orientation, consider the following solved cases.
PKMKLNETSF [SHKBP1, Q8TBC3] | below the threshold
ADENEQVSAV [RAPGEF6, Q8TEU7] | below the threshold
HSATSVHTSV [MTMR1, Q13613] | below the threshold
AKPQPVDSWV [ARVCF, O00192] | below the threshold
SAPATLSSRA [PDLIM2, Q96JY6] | below the threshold

Okay, next one:
For KDECVIATEV [DLL1, O00548] , what is its reported pKd?
below the threshold
